Could you please report measured inhibition at 10 µM for the items listed next?
tested on: Plasmodium berghei; assay: Antimalarial activity against chloroquine-sensitive Plasmodium berghei ANKA infected BALB/c mice (Mus musculus) erythrocytes at 10 uM after 18 hrs as reduced hemoglobin hydrolysis; assay type: functional
Please reply with the bare figure in % and do not write the unit itself.

## Input For COc1cccc(N2c3ccc(Cl)cc3S(=O)(=O)c3c(N)nc(N)nc32)c1 , what is its reported inhibition at 10 µM?
## Output 0

## Input For Nc1n[nH]c2c1S(=O)(=O)c1cc(Cl)ccc1N2c1ccc(Cl)c(Cl)c1 , what is its reported inhibition at 10 µM?
## Output 0

## Input For Nc1n[nH]c2c1S(=O)(=O)c1ccc(Cl)cc1N2c1ccc(Br)cc1 , what is its reported inhibition at 10 µM?
## Output 26.7

## Input For CC(C)CC(=O)N[C@H](C(=O)N[C@H](C(=O)N[C@@H](CC(C)C)[C@@H](O)CC(=O)N[C@@H](C)C(=O)N[C@@H](CC(C)C)[C@@H](O)CC(=O)O)C(C)C)C(C)C [PEPSTATIN] , what is its reported inhibition at 10 µM?
## Output 92.9

## Input For Nc1n[nH]c2c1S(=O)(=O)c1cc(Cl)ccc1N2c1ccc(Br)cc1 , what is its reported inhibition at 10 µM?
## Output 0

---

test system: Plasmodium berghei; assay: Antimalarial activity against chloroquine-sensitive Plasmodium berghei ANKA infected BALB/c mice (Mus musculus) erythrocytes at 10 uM after 18 hrs as reduced hemoglobin hydrolysis; format: functional
Parameter measured: inhibition at 10 µM (%)
Please reply with the bare figure in % and do not write the unit itself.

## Input For Nc1n[nH]c2c1S(=O)(=O)c1cc(Cl)ccc1N2c1cccc(Cl)c1 , what is its reported inhibition at 10 µM?
## Output 0

## Input For Cc1ccccc1N1c2cc(Cl)ccc2S(=O)(=O)c2c(N)n[nH]c21 , what is its reported inhibition at 10 µM?
## Output 92.3

## Input For Nc1n[nH]c2c1S(=O)(=O)c1cc(Cl)ccc1N2c1ccc(Cl)cc1 , what is its reported inhibition at 10 µM?
## Output 0

## Input For Nc1nc(N)c2c(n1)N(c1ccc(Cl)c(Cl)c1)c1cc(Cl)ccc1S2(=O)=O , what is its reported inhibition at 10 µM?
## Output 76

## Input For Nc1nc(N)c2c(n1)N(c1ccc(Br)cc1)c1cc(Cl)ccc1S2(=O)=O , what is its reported inhibition at 10 µM?
## Output 49

## Input For Nc1nc(N)c2c(n1)N(c1cccc(Cl)c1)c1cc(Cl)ccc1S2(=O)=O , what is its reported inhibition at 10 µM?
## Output 0

## Input For Cc1ccc(N2c3cc(Cl)ccc3S(=O)(=O)c3c(N)nc(N)nc32)cc1 , what is its reported inhibition at 10 µM?
## Output 50.1

## Input For Cc1ccccc1N1c2ccc(Cl)cc2S(=O)(=O)c2c(N)nc(N)nc21 , what is its reported inhibition at 10 µM?
## Output 0

## Input For Cc1ccc(C)c(N2c3ccc(Cl)cc3S(=O)(=O)c3c(N)n[nH]c32)c1 , what is its reported inhibition at 10 µM?
## Output 0

---

Could you please report measured inhibition at 10 µM for the items listed next?
tested on: Plasmodium berghei; assay: Antimalarial activity against chloroquine-sensitive Plasmodium berghei ANKA infected BALB/c mice (Mus musculus) erythrocytes at 10 uM after 18 hrs as reduced hemoglobin hydrolysis; type: functional

## Input For COc1ccc(N2c3cc(Cl)ccc3S(=O)(=O)c3c(N)n[nH]c32)cc1 , what is its reported inhibition at 10 µM?
## Output 54.8%

## Input For CCN(CC)CCCC(C)Nc1ccnc2cc(Cl)ccc12 (stereo unspecified) [CHLOROQUINE] , what is its reported inhibition at 10 µM?
## Output 24.1%

## Input For Nc1n[nH]c2c1S(=O)(=O)c1cc(Cl)ccc1N2c1ccccc1 , what is its reported inhibition at 10 µM?
## Output 0%

## Input For Cc1ccc(N2c3cc(Cl)ccc3S(=O)(=O)c3c(N)n[nH]c32)cc1 , what is its reported inhibition at 10 µM?
## Output 78.8%

## Input For Nc1nc(N)c2c(n1)N(c1ccc(Cl)c(Cl)c1)c1ccc(Cl)cc1S2(=O)=O , what is its reported inhibition at 10 µM?
## Output 0%

## Input For Nc1nc(N)c2c(n1)N(c1ccc(Cl)cc1)c1cc(Cl)ccc1S2(=O)=O , what is its reported inhibition at 10 µM?
## Output 67.2%
